system: Trypanosoma cruzi; test: Trypanosoma cruzi phosphomannomutase and mannose-1-phosphate guanylyltransferase assay; format: functional; parameters: scale not given: direction of the effect not stated beside the values; details: 10 µM
Would you mind telling me the reported Percent Effect of each entry?
Lab book: enter the figure in %, no units written.

Problem: Give recorded Percent Effect with Trypanosoma cruzi for the following molecule: CSCC(=O)N1CCCN(c2ccccc2C)CC1
Solution: -5.18

Problem: Give recorded Percent Effect with Trypanosoma cruzi for the following molecule: CCc1nc(CN2CCCN(C(=O)COCC3CC3)CC2)cs1
Solution: -0.282

Problem: Give recorded Percent Effect with Trypanosoma cruzi for the following molecule: COc1ccc(Br)c(C(=O)NCC2CCN(C(=O)c3ccoc3)CC2)c1
Solution: 0.783

Problem: Give recorded Percent Effect with Trypanosoma cruzi for the following molecule: c1ccc(OCCN2CCCC(c3noc(C4CC4)n3)C2)cc1 (centres undefined)
Solution: -3.02

Problem: Give recorded Percent Effect with Trypanosoma cruzi for the following molecule: O=C(NCc1nn(-c2ccccc2)c2c1CCC2)NC1CC1
Solution: 0.469

Problem: Give recorded Percent Effect with Trypanosoma cruzi for the following molecule: CCc1ccc(O)c(C(=O)NC2CCN(Cc3ccncc3)CC2)c1
Solution: -4.98

Problem: Give recorded Percent Effect with Trypanosoma cruzi for the following molecule: Cc1noc(C)c1CNC(=O)N1CCN(Cc2cscn2)CC1
Solution: 5.45

Problem: Give recorded Percent Effect with Trypanosoma cruzi for the following molecule: CC(NC(=O)N1CCC(OCc2ccccc2)CC1)c1nncn1C (centres undefined)
Solution: 7.63

Problem: Give recorded Percent Effect with Trypanosoma cruzi for the following molecule: O=C1CC2(CCCCN2C(=O)c2ccsc2)CN1CC1CC1 (centres undefined)
Solution: 2.44

Problem: Give recorded Percent Effect with Trypanosoma cruzi for the following molecule: CC(C)c1nnc(CN2CCCC2Cn2cncn2)o1 (centres undefined)
Solution: 5.99

Problem: Give recorded Percent Effect with Trypanosoma cruzi for the following molecule: O=C(c1ccc(NC2CC2)nc1)N1CCCC(n2cccn2)C1 (centres undefined)
Solution: -4.51

Problem: Give recorded Percent Effect with Trypanosoma cruzi for the following molecule: CC(=O)N1CCCC1c1nccc(C)n1 (centres undefined)
Solution: -0.984

Problem: Give recorded Percent Effect with Trypanosoma cruzi for the following molecule: CCCN(C(=O)COC)c1nc2c(s1)CCc1c-2cnn1C
Solution: -3.16

Problem: Give recorded Percent Effect with Trypanosoma cruzi for the following molecule: CN(C)c1ccc(CN(CCCn2ccnc2)Cc2c[nH]cn2)cc1
Solution: 3.16

Problem: Give recorded Percent Effect with Trypanosoma cruzi for the following molecule: CCNC(=O)N1CCN(Cc2nc3ccccc3[nH]2)[C@@H]2CS(=O)(=O)C[C@@H]21
Solution: -4.2

Problem: Give recorded Percent Effect with Trypanosoma cruzi for the following molecule: Cc1cc(-c2nn(C)c(Cl)c2CN2CCOCC2CC(=O)O)no1 (centres undefined)
Solution: 5.92

Problem: Give recorded Percent Effect with Trypanosoma cruzi for the following molecule: Cn1c(CN2CCCC2)nnc1C1CCCN(C(=O)C2CCOCC2)C1 (centres undefined)
Solution: 5.99

Problem: Give recorded Percent Effect with Trypanosoma cruzi for the following molecule: Cc1nc(CN2CCOCC3(CCN(c4cccnc4)CC3)C2)cs1
Solution: -2.34

Problem: Give recorded Percent Effect with Trypanosoma cruzi for the following molecule: Nc1nccc(N2CCC(Cc3ccccc3Cl)(C(=O)O)CC2)n1
Solution: 6.56

Problem: Give recorded Percent Effect with Trypanosoma cruzi for the following molecule: Cc1ccc(F)cc1S(=O)(=O)N(C)CC(N)=O
Solution: -1.19

Problem: Give recorded Percent Effect with Trypanosoma cruzi for the following molecule: Cn1cnc2c1C(COCC1CC1)CN(C(=O)Cc1ccsc1)C2 (centres undefined)
Solution: 6.02

Problem: Give recorded Percent Effect with Trypanosoma cruzi for the following molecule: COc1cn(-c2ccccc2)nc1C(=O)NCCCN1CCCC(C)C1 (centres undefined)
Solution: 2.62

Problem: Give recorded Percent Effect with Trypanosoma cruzi for the following molecule: Cc1nc(N2CCN(C(=O)C3CC3)CC2)c2c(n1)c(C)nn2C
Solution: 3.73

Problem: Give recorded Percent Effect with Trypanosoma cruzi for the following molecule: COc1cccc(OC)c1CN1CCC2(CC(Nc3ccncn3)C2)C1 (centres undefined)
Solution: -4.93
